B1: NET1 (parent)
chain: RVRPLARVTSLANLISPVRNGAVR

# Variants of: B1
# protocol: protein stability index of a GFP-peptide fusion (GPS, HEK-293T) (PSI 1-6); higher = more stable;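 further: lentivirally expressed fusions sorted by FACS into six bins by GFP to DsRed ratio, PSI derived from sequencing read proportions per bin multiplied by bin number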
# recorded-conditions: c terminus: a fixed tail appended
measured-attribute: protein stability index

[[record]]
mutant_name = "S16E"
measurement = 3.15

[[record]]
mutant_name = "I15G"
measurement = 3.6

[[record]]
mutant_name = "L14Y"
measurement = 3.17

[[record]]
mutant_name = "V8N"
measurement = 2.87

[[record]]
mutant_name = "A6M"
measurement = 3.18

[[record]]
mutant_name = "R24D"
measurement = 3.37

[[record]]
mutant_name = "R3S"
measurement = 3.03

[[record]]
mutant_name = "N20V"
measurement = 2.64

[[record]]
mutant_name = "G21M"
measurement = 2.69

